Values were extracted from the RNAGym collection of RNA variant scans (doi:10.1101/gr.219683.116).

B1: mRNA-splicing (parent)
chain: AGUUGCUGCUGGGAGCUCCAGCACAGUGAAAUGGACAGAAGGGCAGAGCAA

Variants of: B1
TEST_METHOD_NOTES: exon inclusion enrichment index; higher = more inclusion; WT1 exon 5 minigene, HEK293
Classification field: T = exon inclusion enrichment index at or over 0.08; F = exon inclusion enrichment index under 0.08.

MUTATION_NAME | ASSIGNED_LABEL
G5A U7C G8A U10C C18G | T

**Q:** Record G5C C6A U7G G8U U10A ; criterion: exon inclusion enrichment index no lower than 0.08. Met?
**A:** F

**Q:** Record C6A U7C C9A U10C U17G ; criterion: exon inclusion enrichment index no lower than 0.08. Met?
**A:** T
